B1: ZBED2 (parent)
chain: FHLAPARAGHHPNQYATCRLCGRQ

variants of: B1; assay: protein stability index of a GFP-peptide fusion (GPS, HEK-293T) (PSI 1-6); higher = more stable; conditions: c terminus: a fixed tail appended;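 further: lentivirally expressed fusions sorted by FACS into six bins by GFP to DsRed ratio, PSI derived from sequencing read proportions per bin multiplied by bin number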
endpoint: protein stability index
Enter a number only.

F1R | 2.77
A4E | 2.05
Y15I | 1.63
H2W | 1.26

Request: Fill in the blank: the reported protein stability index of G9L is ____.
Response: 2.55

Request: Fill in the blank: the reported protein stability index of G9Q is ____.
Response: 2.11

Request: Fill in the blank: the reported protein stability index of A16K is ____.
Response: 1.03
